- system.name: recombinant H9-HA, A/HongKong/1073/99 (H9N2) (Influenza A virus A/Hong Kong/1073/99 …, UniProt Q9ICY5, strain)
- method.description: SPR
- test.settings: both partners purified

[
  {
    "binder": "R2a-G8 (VHH, source: E. coli WK6 periplasm, purified (Talon IMAC, Superdex 75 SEC)) VHH: QLQLAESGGGLVQAGGSLRLSCAASGSTLNNNAIGWFRQAPGKEREGVSCMNSRDGTTNYADSVKGRFTISRDVAKNTVYLQMNSLKPEDTAVYFCAVKGFAPFLIGCPWGKAEYDYWGQGTQVTVSS",
    "binding result": "no binding"
  },
  {
    "binder": "R1a-E6 (VHH, source: E. coli WK6 periplasm, purified (Talon IMAC, Superdex 75 SEC)) VHH: QVQLVESGGGLVQPGGSLRLSCAASGFTLGAYAIAWFRQAPGKEREGVSCISPSDSFTEYGDSVKGRFTVSRDNAKNTVYLQMNSLQPEDTAVYYCAADPVCTAGWYRPSRFDLWGQGTQVTVSS",
    "binding result": "no binding"
  }
]

Values from paper PMC4118869
